Data origin: PubChem BioAssay

Tgt: Calmodulin-1 (Homo sapiens) (UniProt P0DP23)
Test summary: small molecules binding calmodulin-1 with EGTA – biochemical, small-molecule microarray, Cy5-labelled CALM1, profiling panel (AID 1111);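 also: labelled calmodulin applied in Tris saline Tween buffer holding calcium plus EGTA and DTT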
Test settings: Cy5-CALM1 binding fluorescence, higher = more signal
composite z-score vs 0.5: at or above is rule met, below is rule not met.

Use these answered entries as a reference point.
>  <Item smiles>
COCCOC(=O)N1C(=O)[C@@]2(c3cc(C#CC4(O)CCCCCC4)ccc31)[C@H](C(=O)Nc1nc3ccccc3s1)[C@H]1C(=O)O[C@H](c3ccccc3)[C@H](c3ccccc3)N1[C@@H]2c1ccc(O)cc1

>  <Class>
rule met

$$$$
>  <Item smiles>
O=C(NCc1ccc(F)cc1)[C@H]1C[C@H]2C(=O)NCC(=O)N2[C@H]1c1ccc(O)cc1

>  <Class>
rule not met

$$$$
>  <Item smiles>
CCCC#C[Si](O[C@H](CC)c1cn([C@H](C)c2ccccc2)nn1)(C(C)C)C(C)C

>  <Class>
rule not met

$$$$

Here's the next entry for you.
Does the compound `COCCOC(=O)N1C(=O)[C@@]2(c3cc(C#CC4=CCCCC4)ccc31)[C@H](c1ccccc1OCCO)N1[C@H](c3ccccc3)[C@H](c3ccccc3)OC(=O)[C@H]1[C@@H]2C(=O)NC[C@H](O)c1ccccc1` have recorded composite z-score that is 0.5 or more?
rule met
